Target: BRAF G466V (Homo sapiens, UniProt P15056, G466V)
Construct: Horizon Discovery (HCT-116 BRAF−/− cells); host or cells: HCT-116 BRAF−/− cells, clone 8, lentiviral transduction
Sequence (P15056 whole entry G466V): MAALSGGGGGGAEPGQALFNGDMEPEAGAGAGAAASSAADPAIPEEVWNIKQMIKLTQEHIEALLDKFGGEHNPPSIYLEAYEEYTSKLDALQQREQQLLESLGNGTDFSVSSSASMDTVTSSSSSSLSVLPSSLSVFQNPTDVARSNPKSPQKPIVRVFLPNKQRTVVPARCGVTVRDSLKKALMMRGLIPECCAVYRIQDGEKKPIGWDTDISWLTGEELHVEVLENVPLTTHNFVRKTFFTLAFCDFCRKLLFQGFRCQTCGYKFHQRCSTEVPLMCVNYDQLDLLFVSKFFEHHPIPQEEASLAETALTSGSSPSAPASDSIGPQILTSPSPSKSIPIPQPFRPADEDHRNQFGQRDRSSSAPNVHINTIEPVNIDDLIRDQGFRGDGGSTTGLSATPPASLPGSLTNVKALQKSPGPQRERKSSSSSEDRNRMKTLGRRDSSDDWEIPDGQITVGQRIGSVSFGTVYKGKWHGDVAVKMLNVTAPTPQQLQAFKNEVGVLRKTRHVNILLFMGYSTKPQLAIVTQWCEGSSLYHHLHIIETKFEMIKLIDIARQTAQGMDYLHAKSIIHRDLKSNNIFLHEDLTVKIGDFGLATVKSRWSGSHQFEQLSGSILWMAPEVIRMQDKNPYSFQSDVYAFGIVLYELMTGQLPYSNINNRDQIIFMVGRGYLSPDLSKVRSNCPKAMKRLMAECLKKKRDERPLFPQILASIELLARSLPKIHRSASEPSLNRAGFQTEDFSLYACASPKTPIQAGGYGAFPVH
Assay: BRAF HiBiT degradation assay, C-terminal HiBiT-tagged BRAF G466V overexpressed in HCT-116 BRAF−/− cells (clone 8), Nano-Glo HiBiT Lytic assay
Format: cell-based
Details: HCT-116; BRAF G466V; percentage protein degraded at maximal compound effect relative to DMSO
METRIC NAME: Dmax

COMPOUND	METRIC NAME	OBSERVED VALUE
CCCS(=O)(=O)Nc1cccc(-c2nc(C(C)(C)C)sc2-c2ccnc(Nc3ccc(C4CCN(C(=O)C[C@H]5CCN(c6ccc(C7CCC(=O)NC7=O)cc6)C5)CC4)cc3)n2)c1F (mixture of isomers)	Dmax	< 30%
CCCS(=O)(=O)Nc1cccc(-c2nc(C(C)(C)C)sc2-c2ccnc(Nc3ccc4c(c3)CCN(CC3CCN(c5ccc6c(=O)n(C7CCC(=O)NC7=O)ccc6c5)CC3)C4)n2)c1F (racemic)	Dmax	30 to 70%
CCCS(=O)(=O)Nc1cccc(-c2cn(-c3ccc(C4CCN(CC5CCN(c6ccc(C7CCC(=O)NC7=O)c(F)c6)CC5)CC4)cc3)nc2-c2ccncc2)c1F (racemic)	Dmax	30 to 70%

# return recorded Dmax for entry `CCCS(=O)(=O)Nc1cccc(-c2nc(-c3ccc(N4CCN(CC5CCN(c6ccc([C@H]7CCC(=O)NC7=O)cc6)CC5)CC4)cc3)sc2-c2ccnc(N)n2)c1F`
30 to 70%

# return recorded Dmax for entry CCCS(=O)(=O)Nc1cccc(-c2nc(C(C)(C)C)sc2-c2ccnc(Nc3cccc(OC4CCN(CC[C@H]5CCN(c6ccc(C7CCC(=O)NC7=O)cn6)C5)CC4)c3)n2)c1F (mixture of isomers)
30 to 70%

# return recorded Dmax for entry CCN(C)S(=O)(=O)Nc1cccc(-c2nc(C(C)(C)C)sc2-c2ccnc(Nc3ccc(N4CCN(C(=O)C5CCN(c6ccc(C7CCC(=O)NC7=O)cn6)CC5)CC4)cn3)n2)c1F (racemic)
30 to 70%

# return recorded Dmax for entry CCCS(=O)(=O)Nc1cccc(-c2nc(C3CCN(C(=O)C4CCN(C(=O)CC5CCN(c6ccc(C7CCC(=O)NC7=O)cn6)CC5)CC4)CC3)sc2-c2ccnc(N)n2)c1F (racemic)
> 70%

---

Target: BRAF V600E (Homo sapiens, UniProt P15056, V600E)
Construct: endogenous C-terminal HiBiT fusion tag on BRAF V600E allele; endogenous in cells; host or cells: A375 clone 1F10 (CRISPR-Cas9 knock-in of the HiBiT tag; parental A375 from ATCC)
Sequence (P15056 whole entry V600E, the tested form may be a part): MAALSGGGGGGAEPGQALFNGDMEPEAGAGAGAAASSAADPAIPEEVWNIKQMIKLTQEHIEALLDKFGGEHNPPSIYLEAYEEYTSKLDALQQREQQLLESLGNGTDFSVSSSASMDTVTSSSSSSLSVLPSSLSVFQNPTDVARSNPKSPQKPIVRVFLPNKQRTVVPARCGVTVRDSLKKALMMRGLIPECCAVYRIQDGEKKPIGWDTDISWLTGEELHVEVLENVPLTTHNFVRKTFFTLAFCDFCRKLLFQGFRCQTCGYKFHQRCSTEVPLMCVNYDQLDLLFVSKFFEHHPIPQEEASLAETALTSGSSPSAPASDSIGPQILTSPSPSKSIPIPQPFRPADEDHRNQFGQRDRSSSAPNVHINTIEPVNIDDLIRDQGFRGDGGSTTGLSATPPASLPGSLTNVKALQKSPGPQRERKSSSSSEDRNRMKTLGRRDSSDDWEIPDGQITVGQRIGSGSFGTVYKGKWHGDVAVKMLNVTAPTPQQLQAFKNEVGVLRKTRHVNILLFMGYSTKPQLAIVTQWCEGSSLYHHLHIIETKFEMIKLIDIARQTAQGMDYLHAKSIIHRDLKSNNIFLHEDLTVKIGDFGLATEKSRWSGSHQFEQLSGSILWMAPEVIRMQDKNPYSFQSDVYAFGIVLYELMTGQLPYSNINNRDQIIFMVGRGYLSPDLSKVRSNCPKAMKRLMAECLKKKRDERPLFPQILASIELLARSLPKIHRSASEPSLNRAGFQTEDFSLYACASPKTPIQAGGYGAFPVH
Assay: BRAF HiBiT degradation assay, C-terminal HiBiT-tagged BRAF V600E A375 cells (clone 1F10), Nano-Glo HiBiT Lytic assay
Assay type: cell-based
Settings: A375 (BRAF V600E); DC50 at 50%: fitted conc. at Y=50
METRIC NAME: DC50

Consider the reported DC50 for these molecules:
MOLECULE	DC50
CCCS(=O)(=O)Nc1cccc(-c2nc(C(C)(C)C)sc2-c2ccnc(Nc3cccc(C4CCN(CC5(C)CCN(c6ccc(C7CCC(=O)NC7=O)cn6)CC5)CC4)c3)n2)c1F (racemic)	50 to 500 nM
CCCS(=O)(=O)Nc1cccc(-c2nc(C(C)(C)C)sc2-c2ccnc(Nc3ccc(C4CCN(C(=O)C[C@@H]5CCN(c6ccc(C7CCC(=O)NC7=O)cc6)C5)CC4)cc3)n2)c1F (mixture of isomers)	50 to 500 nM

# return recorded DC50 for entry `CCN(C)S(=O)(=O)Nc1cccc(-c2nc(C(C)(C)C)sc2-c2ccnc(Nc3ccc(N4CCN(CC5CCN(c6ccc([C@H]7CCC(=O)NC7=O)cn6)CC5)CC4)cn3)n2)c1F`
10 to 50 nM

# return recorded DC50 for entry CCCS(=O)(=O)Nc1cccc(-c2nc(C(C)(C)C)sc2-c2ccnc(Nc3cnn(C4CCN(CC5CCN(c6ccc(C(=O)NC7CCC(=O)NC7=O)nc6)CC5)CC4)c3)n2)c1F (racemic)
< 10 nM

# return recorded DC50 for entry `CCCS(=O)(=O)Nc1cccc(-c2nc(C(C)(C)C)sc2-c2ccnc(Nc3ccc(N4CCN(CC5CCN(c6ccc([C@H]7CCC(=O)NC7=O)cc6)CC5)CC4)c(F)c3)n2)c1F`
10 to 50 nM

# return recorded DC50 for entry CCCS(=O)(=O)Nc1cccc(-c2nc(C3CCC4(CC3)CCN(C(=O)C3CCN(c5ccc6c(c5)C(=O)N(C5CCC(=O)NC5=O)C6=O)CC3)CC4)sc2-c2ccnc(N)n2)c1F (racemic)
< 10 nM

# return recorded DC50 for entry CCCS(=O)(=O)Nc1cccc(-c2cn(-c3ccc(C(=O)N4CCN(C(=O)CC5CCN(c6ccc(C7CCC(=O)NC7=O)cn6)CC5)CC4)cc3)nc2-c2ccncc2)c1F (racemic)
10 to 50 nM

# return recorded DC50 for entry CCCS(=O)(=O)Nc1cccc(-c2nc(C(C)(C)C)sc2-c2ccnc(Nc3cnn(CC4CCN(CC5CCN(c6ccc7c(=O)n(C8CCC(=O)NC8=O)ccc7c6)CC5)CC4)c3)n2)c1F (racemic)
< 10 nM

# return recorded DC50 for entry CCCS(=O)(=O)Nc1cccc(-c2nc(C(C)(C)C)sc2-c2ccnc(NC3CC4(CCN(C(=O)CN5CCC(c6ccc(NC7CCC(=O)NC7=O)cc6)CC5)CC4)C3)n2)c1F (racemic)
10 to 50 nM

# return recorded DC50 for entry CCN(C)S(=O)(=O)Nc1cccc(-c2nc(C3CCN(C(=O)C4CCN(C(=O)C5CCN(c6ccc(C7CCC(=O)NC7=O)cn6)CC5)CC4)CC3)sc2-c2ccnc(NC(C)C)n2)c1F (racemic)
< 10 nM

---

Parameter DC50: see the listing below.
Target: BRAF G469A (Homo sapiens, UniProt P15056, G469A)
Construct: Horizon Discovery (HCT-116 BRAF−/− cells); host or cells: HCT-116 BRAF−/− cells, clone 34, lentiviral transduction
Sequence (P15056 whole entry G469A): as the sequence (P15056 whole entry V600E, the tested form may be a part) above, with G469A, E600V counted along it
Test: BRAF HiBiT degradation assay, C-terminal HiBiT-tagged BRAF G469A overexpressed in HCT-116 BRAF−/− cells (clone 34), Nano-Glo HiBiT Lytic assay
Assay type: cell-based
Conditions: Class 2; BRAF G469A; DC50 at 50%: fitted conc. at Y=50
Procedure: An A375 cell line expressing a homozygous V600E mutation was purchased from ATCC (Manassas, VA, USA). […] HiBiT signal was measured by a Nano-Glo HiBiT Lytic assay (Promega cat. no. N3050). […] Luminesce units (LU) were read on an EnVision plate reader 2105 (Perkin Elmer). Percent protein remaining and viability remaining per sample were calculated as follows: […]

Consider the reported DC50 for these compounds:
COMPOUND	ASSAY TARGET	DC50
CCCS(=O)(=O)Nc1cccc(-c2nc(C3(C)CCN(C(=O)CN4CCC5(CC4)CN(c4ccc6c(c4)C(=O)N(C4CCC(=O)NC4=O)C6=O)C5)CC3)sc2-c2ccnc(N)n2)c1F (racemic)	BRAF G469A (Homo sapiens, UniProt P15056, G469A)	> 0.5 µM
CCCS(=O)(=O)Nc1cccc(-c2nc(C(C)(C)C)sc2-c2ccnc(Nc3cnn(CC4CCN(C(=O)[C@H]5CC[C@H](Oc6ccc(C7CCC(=O)NC7=O)cn6)CC5)CC4)c3)n2)c1F (mixture of isomers)	BRAF G469A (Homo sapiens, UniProt P15056, G469A)	> 0.5 µM

Here is another compound to look at.
# return recorded DC50 for entry `CCN(C)S(=O)(=O)Nc1cccc(-c2nc(C(C)(C)C)sc2-c2ccnc(Nc3ccc(N4CCN(CC5CCN(c6ccc([C@H]7CCC(=O)NC7=O)cc6)CC5)CC4)cn3)n2)c1F`
> 0.5 µM

---

Biological target: BRAF G466V (Homo sapiens, UniProt P15056, G466V)
Construct: Horizon Discovery (HCT-116 BRAF−/− cells); host or cells: HCT-116 BRAF−/− cells, clone 8, lentiviral transduction
Experiment: BRAF HiBiT degradation assay, C-terminal HiBiT-tagged BRAF G466V overexpressed in HCT-116 BRAF−/− cells (clone 8), Nano-Glo HiBiT Lytic assay
Format: cell-based
Conditions: BRAF G466V; DC50 at 50%: fitted conc. at Y=50
METRIC NAME: DC50

Consider the reported DC50 for these compounds:
COMPOUND	ASSAY TARGET	DC50
CCCS(=O)(=O)Nc1cccc(-c2nc(C(C)(C)C)sc2-c2ccnc(Nc3ccc(N4CCN(CC5CCN(c6ccc(C7CCC(=O)NC7=O)cn6)CC5)CC4)cc3)n2)c1F (racemic)	BRAF G466V (Homo sapiens, UniProt P15056, G466V)	< 10 nM
CCCS(=O)(=O)Nc1cccc(-c2nc(C(C)(C)C)sc2-c2ccnc(Nc3cnn(C4CCN(C(=O)[C@H]5CC[C@H](Oc6ccc(C7CCC(=O)NC7=O)cn6)CC5)CC4)c3)n2)c1F (mixture of isomers)	BRAF G466V (Homo sapiens, UniProt P15056, G466V)	> 500 nM
CCCS(=O)(=O)Nc1cccc(-c2cn(-c3ccc(C4CCN(CC5CCN(c6ccc([C@@H]7CCC(=O)NC7=O)cc6)CC5)CC4)cc3)nc2-c2ccncc2)c1F	BRAF G466V (Homo sapiens, UniProt P15056, G466V)	10 to 50 nM
CCCS(=O)(=O)Nc1cccc(-c2nc(-c3ccc(N4CCN(CC5CCN(c6ccc([C@@H]7CCC(=O)NC7=O)cc6)CC5)CC4)cc3)sc2-c2ccnc(N)n2)c1F	BRAF G466V (Homo sapiens, UniProt P15056, G466V)	> 500 nM

For BRAF G466V (Homo sapiens, UniProt P15056, G466V), give DC50 of the listed compound: CCCS(=O)(=O)Nc1cccc(-c2nc(C(C)(C)C)sc2-c2ccnc(Nc3ccc4c(c3)CCN(CC3CCN(c5ccc6c(=O)n(C7CCC(=O)NC7=O)ccc6c5)CC3)C4)n2)c1F (racemic)
> 500 nM
